assay: Pharmacokinetic experiment of the crystalline form A in rats; format: in vivo; conditions: both sexes, Sprague-Dawley (SD), rat, blood; SD rats, intravenous, 3 mg/kg, single dose, n = 6
attribute_measured: Cmax (ng/mL)
Number in ng/mL, nothing else.

Any idea what its Cmax is? The molecule is COC(=O)C1=C(CN2CCO[C@H](/C=C/C(=O)O)C2)NC(c2nccs2)=N[C@H]1c1ccc(F)cc1Cl [crystalline form A]
9210

====

assay: Pharmacokinetic experiment of the crystalline form A in rats; assay type: in vivo; conditions: both sexes, Sprague-Dawley (SD), rat, blood, po; SD rats, intragastric, 3 mg/kg, single dose, n = 6; median (range in next line)
attribute_measured: Tmax (min)
Number in min, nothing else.

Any idea what its Tmax is? The compound is COC(=O)C1=C(CN2CCO[C@H](/C=C/C(=O)O)C2)NC(c2nccs2)=N[C@H]1c1ccc(F)cc1Cl [crystalline form A]
22.8

====

experiment: Pharmacokinetic experiment of the crystalline form A in rats; assay type: in vivo; details: both sexes, Sprague-Dawley (SD), rat, blood, po; SD rats, intragastric, 3 mg/kg, single dose, n = 6
attribute_measured: Cmax (ng/mL)
Number in ng/mL, nothing else.

Any idea what its Cmax is? The molecule is COC(=O)C1=C(CN2CCO[C@H](/C=C/C(=O)O)C2)NC(c2nccs2)=N[C@H]1c1ccc(F)cc1Cl [crystalline form A]
3980

====

experiment: Pharmacokinetic experiment of the crystalline form A in rats; type: in vivo; conditions: both sexes, Sprague-Dawley (SD), rat, blood, oral; rats, intragastric vs intravenous, 3 mg/kg, calculated based on AUC0-∞; read-out: absolute bioavailability
attribute_measured: bioavailability (%)
Number in %, nothing else.

Any idea what its bioavailability is? The molecule is COC(=O)C1=C(CN2CCO[C@H](/C=C/C(=O)O)C2)NC(c2nccs2)=N[C@H]1c1ccc(F)cc1Cl [crystalline form A]
62.4

====

test: Determination of the log P value (Sirius T3, pH-metric medium log P); format: physicochemical; details: titration from low to high pH
attribute_measured: logP

Any idea what its logP is? The molecule is COC(=O)C1=C(CN2CCO[C@H](/C=C/C(=O)O)C2)NC(c2nccs2)=N[C@H]1c1ccc(F)cc1Cl [crystalline form A]
2.4 to 2.6

====

Test: Pharmacokinetic experiment of the crystalline form A in rats
Type: in vivo
Conditions: both sexes, Sprague-Dawley (SD), rat, blood, po; SD rats, intragastric, 3 mg/kg, single dose, n = 6
Excerpt: Formulation of the test sample for intravenous administration: the sample of Example 5 (the solvent used in the crystal preparation was isopropanol) was taken and dissolved in 5% DMSO+5% Solutol (HS15)+90% normal saline, to obtain the test sample solution for intravenous administration; […]
attribute_measured: half-life (h)
Number in h, nothing else.

Any idea what its half-life is? The molecule is COC(=O)C1=C(CN2CCO[C@H](/C=C/C(=O)O)C2)NC(c2nccs2)=N[C@H]1c1ccc(F)cc1Cl [crystalline form A]
1.01

====

test: Pharmacokinetic experiment of the crystalline form A in rats; type: in vivo; details: both sexes, Sprague-Dawley (SD), rat, blood, po; SD rats, intragastric, 3 mg/kg, single dose, n = 6
attribute_measured: AUC(0-inf)

Any idea what its AUC(0-inf) is? The compound is COC(=O)C1=C(CN2CCO[C@H](/C=C/C(=O)O)C2)NC(c2nccs2)=N[C@H]1c1ccc(F)cc1Cl [crystalline form A]
6490 ng·h/mL

====

assay: Pharmacokinetic experiment of the crystalline form A in rats; assay type: in vivo; settings: both sexes, Sprague-Dawley (SD), rat, blood; SD rats, intravenous, 3 mg/kg, single dose, n = 6
attribute_measured: AUC(0-inf) (µg·h/mL)
Number in µg·h/mL, nothing else.

Any idea what its AUC(0-inf) is? The compound is COC(=O)C1=C(CN2CCO[C@H](/C=C/C(=O)O)C2)NC(c2nccs2)=N[C@H]1c1ccc(F)cc1Cl [crystalline form A]
10.4

====

assay: Pharmacokinetic experiment of the crystalline form A in rats; format: in vivo; settings: both sexes, Sprague-Dawley (SD), rat, blood; SD rats, intravenous, 3 mg/kg, single dose, n = 6
attribute_measured: AUC(0-t) (ng·h/mL)
Number in ng·h/mL, nothing else.

Any idea what its AUC(0-t) is? The molecule is COC(=O)C1=C(CN2CCO[C@H](/C=C/C(=O)O)C2)NC(c2nccs2)=N[C@H]1c1ccc(F)cc1Cl [crystalline form A]
10400

====

assay: Pharmacokinetic experiment of the crystalline form A in rats; type: in vivo; conditions: both sexes, Sprague-Dawley (SD), rat, blood, po; SD rats, intragastric, 3 mg/kg, single dose, n = 6
attribute_measured: AUC(0-t)
Include the unit right after the number.

Any idea what its AUC(0-t) is? The compound is COC(=O)C1=C(CN2CCO[C@H](/C=C/C(=O)O)C2)NC(c2nccs2)=N[C@H]1c1ccc(F)cc1Cl [crystalline form A]
6460 ng·h/mL
